The values you see were collected from ChEMBL document CHEMBL5653597.

assay: Inhibition of purified CDK2/Cyclin A (unknown origin); parameters: species or system Homo sapiens
pIC50: −log10 of the molar value. Counter-ions that a name gives are not always drawn.
endpoint: pIC50

# get_value(readout='pIC50', item= C=CC(=O)Nc1cc2c(Nc3ccc(F)c(Cl)c3)ncnc2cc1OCCCN1CCOCC1 [CANERTINIB DIHYDROCHLORIDE] )
< 4.30
